Entry source: paper PMC12162926

# log10 Intracellular concentration annotations
tested on: L-02 cells; test: Intracellular accumulation in L-02 cells by LC–MS/MS; type: in vitro ADME, human; conditions: L-02, JLZS extracts 6.5 mg/mL, time 8 h, n = 6
readout_type: log10 Intracellular concentration (log10 of the value in ng/mL)

compound="COc1cc2c(cc1OC)-c1c(C)c3ccc(OC)c(OC)c3c[n+]1CC2 [DHC, dehydrocorydaline]" readout_type="log10 Intracellular concentration" recorded_result=1.99
compound=COc1cc2c(cc1OC)-c1cc3ccc(OC)c(OC)c3c[n+]1CC2 readout_type="log10 Intracellular concentration" recorded_result=2.00
compound="c1cc2c(c3c1CC1c4cc5c(cc4CCN1C3)OCO5)OCO2 (stereo not shown) [THC, tetrahydrocoptisine]" readout_type="log10 Intracellular concentration" recorded_result=1.12
compound=COc1cc2c(cc1O)CC[n+]1cc3c(OC)c(OC)ccc3cc1-2 readout_type="log10 Intracellular concentration" recorded_result=1.42
compound=c1c2c(cc3c1OCO3)-c1cc3ccc4c(c3c[n+]1CC2)OCO4 readout_type="log10 Intracellular concentration" recorded_result=2.42
compound=COc1ccc2cc3[n+](cc2c1OC)CCc1cc2c(cc1-3)OCO2 readout_type="log10 Intracellular concentration" recorded_result=1.19
compound=CC(=O)O[C@@H]1C[C@H](O)[C@@]23CO[C@@H](O)[C@]1(C)[C@@H]2C[C@@H](O)[C@]1(C)[C@@H]3C(=O)[C@H](OC(C)=O)[C@@]2(C)[C@H](c3ccoc3)C[C@H]3O[C@]321 readout_type="log10 Intracellular concentration" recorded_result=1.19

###

Assay: Stability of analytes in cell lysates (LC–MS/MS method validation)
Type: physicochemical
Conditions: three freeze-thaw, high QC level, n=3
Experimental: The stability of seven analytes including short-term stability (12 h at room temperature), post-preparation stability at 4 ℃ (24 h at autosampler), freeze-thaw stability (three freeze-thaw stability) and long-term stability (-80℃ for a month) was tested by analyzing three replicates at low and high QC levels during various sample storage and handling process.
Here, each record is paired with measured Freeze-thaw stability RE% data.
readout_type: Freeze-thaw stability RE% (%)

compound="COc1ccc2cc3[n+](cc2c1OC)CCc1cc2c(cc1-3)OCO2 [BER, berberine]" readout_type="Freeze-thaw stability RE%" recorded_result=6.9
compound="COc1cc2c(cc1OC)-c1cc3ccc(OC)c(OC)c3c[n+]1CC2 [PAL, palmatine]" readout_type="Freeze-thaw stability RE%" recorded_result=6.5
compound="c1c2c(cc3c1OCO3)-c1cc3ccc4c(c3c[n+]1CC2)OCO4 [COP, coptisine]" readout_type="Freeze-thaw stability RE%" recorded_result=5.0
compound="CC(=O)O[C@@H]1C[C@H](O)[C@@]23CO[C@@H](O)[C@]1(C)[C@@H]2C[C@@H](O)[C@]1(C)[C@@H]3C(=O)[C@H](OC(C)=O)[C@@]2(C)[C@H](c3ccoc3)C[C@H]3O[C@]321 [TSN, toosendanin]" readout_type="Freeze-thaw stability RE%" recorded_result=-4.0
compound="c1cc2c(c3c1CC1c4cc5c(cc4CCN1C3)OCO5)OCO2 (stereo not shown) [THC, tetrahydrocoptisine]" readout_type="Freeze-thaw stability RE%" recorded_result=-1.4
compound="COc1cc2c(cc1O)CC[n+]1cc3c(OC)c(OC)ccc3cc1-2 [JAT, jatrorrhizine]" readout_type="Freeze-thaw stability RE%" recorded_result=8.0
compound="COc1cc2c(cc1OC)-c1c(C)c3ccc(OC)c(OC)c3c[n+]1CC2 [DHC, dehydrocorydaline]" readout_type="Freeze-thaw stability RE%" recorded_result=0.4

###

system: L-02 cells; assay: Intracellular accumulation in L-02 cells by LC–MS/MS; assay type: in vitro ADME, human; settings: L-02, JLZS extracts 6.5 mg/mL, time 1.5 h, n = 6
readout_type: Intracellular concentration (ng/mL)

molecule="COc1cc2c(cc1OC)-c1c(C)c3ccc(OC)c(OC)c3c[n+]1CC2 [DHC, dehydrocorydaline]" units=ng/mL recorded_result=71.9
molecule="c1c2c(cc3c1OCO3)-c1cc3ccc4c(c3c[n+]1CC2)OCO4 [COP, coptisine]" units=ng/mL recorded_result=84.4
molecule="COc1ccc2cc3[n+](cc2c1OC)CCc1cc2c(cc1-3)OCO2 [BER, berberine]" units=ng/mL recorded_result=7.2
molecule="COc1cc2c(cc1O)CC[n+]1cc3c(OC)c(OC)ccc3cc1-2 [JAT, jatrorrhizine]" units=ng/mL recorded_result=15.8
molecule="c1cc2c(c3c1CC1c4cc5c(cc4CCN1C3)OCO5)OCO2 (stereo not shown) [THC, tetrahydrocoptisine]" units=ng/mL recorded_result=17.7
molecule="CC(=O)O[C@@H]1C[C@H](O)[C@@]23CO[C@@H](O)[C@]1(C)[C@@H]2C[C@@H](O)[C@]1(C)[C@@H]3C(=O)[C@H](OC(C)=O)[C@@]2(C)[C@H](c3ccoc3)C[C@H]3O[C@]321 [TSN, toosendanin]" units=ng/mL recorded_result=32.8
molecule="COc1cc2c(cc1OC)-c1cc3ccc(OC)c(OC)c3c[n+]1CC2 [PAL, palmatine]" units=ng/mL recorded_result=40.2

###

experiment: Stability of analytes in cell lysates (LC–MS/MS method validation); format: physicochemical; conditions: -80℃ for a month, low QC level, n=3
Collected Long-term stability RE% values appear next to each entry.
readout_type: Long-term stability RE%

compound="COc1cc2c(cc1OC)-c1c(C)c3ccc(OC)c(OC)c3c[n+]1CC2 [DHC, dehydrocorydaline]" recorded_result=2.3%
compound="CC(=O)O[C@@H]1C[C@H](O)[C@@]23CO[C@@H](O)[C@]1(C)[C@@H]2C[C@@H](O)[C@]1(C)[C@@H]3C(=O)[C@H](OC(C)=O)[C@@]2(C)[C@H](c3ccoc3)C[C@H]3O[C@]321 [TSN, toosendanin]" recorded_result=10.2%
compound="c1c2c(cc3c1OCO3)-c1cc3ccc4c(c3c[n+]1CC2)OCO4 [COP, coptisine]" recorded_result=4.0%

###

tested on: L-02 cells; assay: Intracellular accumulation in L-02 cells by LC–MS/MS; assay type: in vitro ADME, human; conditions: L-02, JLZS extracts 6.5 mg/mL, time 1 h, n = 6
TRUE if Intracellular concentration is below 40 ng/mL. FALSE if not; exact matches included in FALSE.

compound=CC(=O)O[C@@H]1C[C@H](O)[C@@]23CO[C@@H](O)[C@]1(C)[C@@H]2C[C@@H](O)[C@]1(C)[C@@H]3C(=O)[C@H](OC(C)=O)[C@@]2(C)[C@H](c3ccoc3)C[C@H]3O[C@]321 cat=TRUE
compound=c1c2c(cc3c1OCO3)-c1cc3ccc4c(c3c[n+]1CC2)OCO4 cat=FALSE
compound=COc1cc2c(cc1O)CC[n+]1cc3c(OC)c(OC)ccc3cc1-2 cat=TRUE
compound=COc1ccc2cc3[n+](cc2c1OC)CCc1cc2c(cc1-3)OCO2 cat=TRUE
compound=COc1cc2c(cc1OC)-c1cc3ccc(OC)c(OC)c3c[n+]1CC2 cat=TRUE
compound="c1cc2c(c3c1CC1c4cc5c(cc4CCN1C3)OCO5)OCO2 (stereo not shown) [THC, tetrahydrocoptisine]" cat=TRUE
compound="COc1cc2c(cc1OC)-c1c(C)c3ccc(OC)c(OC)c3c[n+]1CC2 [DHC, dehydrocorydaline]" cat=FALSE

###

test system: L-02 cells; assay: Intracellular accumulation in L-02 cells by LC–MS/MS; type: in vitro ADME, human; conditions: L-02, JLZS extracts 6.5 mg/mL, time 0.25 h, n = 6
readout_type: Intracellular concentration (ng/mL)

molecule="c1cc2c(c3c1CC1c4cc5c(cc4CCN1C3)OCO5)OCO2 (stereo not shown) [THC, tetrahydrocoptisine]" recorded_result=15.8
molecule=CC(=O)O[C@@H]1C[C@H](O)[C@@]23CO[C@@H](O)[C@]1(C)[C@@H]2C[C@@H](O)[C@]1(C)[C@@H]3C(=O)[C@H](OC(C)=O)[C@@]2(C)[C@H](c3ccoc3)C[C@H]3O[C@]321 recorded_result=10.4
molecule=COc1cc2c(cc1OC)-c1cc3ccc(OC)c(OC)c3c[n+]1CC2 recorded_result=11.6
molecule=c1c2c(cc3c1OCO3)-c1cc3ccc4c(c3c[n+]1CC2)OCO4 recorded_result=38.3
molecule="COc1cc2c(cc1OC)-c1c(C)c3ccc(OC)c(OC)c3c[n+]1CC2 [DHC, dehydrocorydaline]" recorded_result=15.2
molecule=COc1ccc2cc3[n+](cc2c1OC)CCc1cc2c(cc1-3)OCO2 recorded_result=3.2
molecule=COc1cc2c(cc1O)CC[n+]1cc3c(OC)c(OC)ccc3cc1-2 recorded_result=13.4

###

Form field: Intracellular concentration (one value per entry).
test system: L-02 cells; test: Intracellular accumulation in L-02 cells by LC–MS/MS; type: in vitro ADME, human; conditions: L-02, JLZS extracts 6.5 mg/mL, time 3 h, n = 6
readout_type: Intracellular concentration

molecule=COc1ccc2cc3[n+](cc2c1OC)CCc1cc2c(cc1-3)OCO2 readout_type="Intracellular concentration" recorded_result="10.1 ± 1.7 ng/mL"
molecule=c1c2c(cc3c1OCO3)-c1cc3ccc4c(c3c[n+]1CC2)OCO4 readout_type="Intracellular concentration" recorded_result="134.8 ± 24.4 ng/mL"
molecule=COc1cc2c(cc1O)CC[n+]1cc3c(OC)c(OC)ccc3cc1-2 readout_type="Intracellular concentration" recorded_result="19.6 ± 1.0 ng/mL"
molecule="c1cc2c(c3c1CC1c4cc5c(cc4CCN1C3)OCO5)OCO2 (stereo not shown) [THC, tetrahydrocoptisine]" readout_type="Intracellular concentration" recorded_result="15.8 ± 2.9 ng/mL"
molecule=CC(=O)O[C@@H]1C[C@H](O)[C@@]23CO[C@@H](O)[C@]1(C)[C@@H]2C[C@@H](O)[C@]1(C)[C@@H]3C(=O)[C@H](OC(C)=O)[C@@]2(C)[C@H](c3ccoc3)C[C@H]3O[C@]321 readout_type="Intracellular concentration" recorded_result="23.8 ± 4.4 ng/mL"
molecule="COc1cc2c(cc1OC)-c1c(C)c3ccc(OC)c(OC)c3c[n+]1CC2 [DHC, dehydrocorydaline]" readout_type="Intracellular concentration" recorded_result="82.0 ± 7.5 ng/mL"
molecule=COc1cc2c(cc1OC)-c1cc3ccc(OC)c(OC)c3c[n+]1CC2 readout_type="Intracellular concentration" recorded_result="65.7 ± 12.4 ng/mL"
